Biological target: purified human HDAC6 (Homo sapiens, UniProt Q9UBN7)
Sequence (Q9UBN7 1-1215): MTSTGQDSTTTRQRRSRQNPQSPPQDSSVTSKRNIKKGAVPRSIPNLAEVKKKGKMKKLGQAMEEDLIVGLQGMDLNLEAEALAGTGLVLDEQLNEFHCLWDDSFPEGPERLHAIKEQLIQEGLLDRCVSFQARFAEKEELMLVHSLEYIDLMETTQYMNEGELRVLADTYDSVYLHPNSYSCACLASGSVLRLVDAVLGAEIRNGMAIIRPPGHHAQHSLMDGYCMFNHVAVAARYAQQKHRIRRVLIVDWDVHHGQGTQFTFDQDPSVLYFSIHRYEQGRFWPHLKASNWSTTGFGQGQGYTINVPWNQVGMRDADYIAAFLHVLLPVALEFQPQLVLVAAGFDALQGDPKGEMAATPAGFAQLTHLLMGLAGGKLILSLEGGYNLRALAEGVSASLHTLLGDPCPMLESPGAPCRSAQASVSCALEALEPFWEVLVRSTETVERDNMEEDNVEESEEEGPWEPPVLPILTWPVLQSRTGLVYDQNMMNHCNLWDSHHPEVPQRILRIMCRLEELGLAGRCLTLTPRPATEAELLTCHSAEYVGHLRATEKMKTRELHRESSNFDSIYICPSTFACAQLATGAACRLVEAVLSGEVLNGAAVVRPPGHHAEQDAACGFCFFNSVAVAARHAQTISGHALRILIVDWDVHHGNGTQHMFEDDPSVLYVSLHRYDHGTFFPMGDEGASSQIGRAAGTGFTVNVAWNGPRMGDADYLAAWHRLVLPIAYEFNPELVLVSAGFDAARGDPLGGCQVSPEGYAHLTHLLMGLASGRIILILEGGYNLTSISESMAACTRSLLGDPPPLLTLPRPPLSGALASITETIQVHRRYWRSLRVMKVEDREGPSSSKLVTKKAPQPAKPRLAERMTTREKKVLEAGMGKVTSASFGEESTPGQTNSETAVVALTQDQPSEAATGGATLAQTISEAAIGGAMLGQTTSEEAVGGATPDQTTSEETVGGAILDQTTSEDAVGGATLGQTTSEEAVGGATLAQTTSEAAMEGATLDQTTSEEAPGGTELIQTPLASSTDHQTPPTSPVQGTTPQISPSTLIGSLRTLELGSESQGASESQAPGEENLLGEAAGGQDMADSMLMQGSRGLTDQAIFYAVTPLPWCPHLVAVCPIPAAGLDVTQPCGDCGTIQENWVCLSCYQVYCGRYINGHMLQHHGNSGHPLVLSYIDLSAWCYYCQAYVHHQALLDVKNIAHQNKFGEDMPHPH
value-type: IC50

* C[C@@H](NC(=O)C1(C)CCCCC1)c1ccc(C(=O)NO)s1 [Compound I-43] | > 500 nM
* COc1ccc(C(=O)N[C@@H](C)c2ncc(C(=O)NO)s2)cc1 [Compound I-175] | 100 to 500 nM
* Cc1ccc(NC(=O)NC(C)c2ccc(C(=O)NO)s2)c(C)c1 (stereo not drawn) [Compound I-13] | < 100 nM
* Cc1cccc(C)c1NC(=O)NC(C)c1ccc(C(=O)NO)s1 (stereo not drawn) [Compound I-32] | 100 to 500 nM
* C[C@@H](NC(=O)NC(C)(C)C)c1ccc(C(=O)NO)s1 [Compound I-8] | 100 to 500 nM
* C[C@H](NC(=O)c1cc2ccccc2o1)c1ncc(C(=O)NO)s1 [Compound I-159] | < 100 nM
* C[C@@H](NC(=O)c1cc2ccccc2s1)c1ccc(C(=O)NO)s1 [Compound I-16] | < 100 nM
* COc1ccc(C)cc1NC(=O)NC(C)c1ccc(C(=O)NO)s1 (stereo not drawn) [Compound I-19] | < 100 nM
* C[C@@H](NC(=O)C1(C)CCCCC1)c1ncc(C(=O)NO)s1 [Compound I-162] | > 500 nM
